For each entry below, report its IC50 value.
# Target of assay: UniProt P36639
# Experiment: Inhibition of the MTH1 hydrolysis of 8-oxo-dGTP (HPLC)
# Type: biochemical
# Protocol conditions: 50 μM 8-oxo-dGTP, 5 nM MTH1, pH 7.5, 37 °C, 10 min
Respond with the bare value in nM.

Ask: Specify IC50 for Nc1nc2c(c(Br)c(Br)n2[C@H]2C[C@H](O)[C@@H](COP(=O)(O)OP(=O)(O)OP(=O)(O)O)O2)c(=O)[nH]1 , system UniProt P36639.
Result: 110

Ask: Specify IC50 for Nc1nc2c(c(Br)c(Br)n2[C@H]2C[C@H](O)[C@@H](COP(=O)(O)O)O2)c(=O)[nH]1 , system UniProt P36639.
Result: 260

Ask: Specify IC50 for Nc1nc2c(c(Br)c(Br)n2[C@H]2C[C@H](O)[C@@H](CO)O2)c(=O)[nH]1 , system UniProt P36639.
Result: 10700

----------
For each entry below, report its pKi value.
# Target of assay: MTH1 (Homo sapiens)
# Experiment: Steady-state kinetics of MTH1 hydrolysis of 8-oxo-dGTP (Lineweaver-Burk plot)
# Assay type: biochemical
# Protocol conditions: 10–250 μM 8-oxo-dGTP, 2 nM MTH1, 37 °C
Quick note: pKi values are minus log10 of concentrations in mol/L.

Ask: Indicate its recorded pKi; the compound in question is Nc1nc2c(c(Cl)c(Cl)n2[C@H]2C[C@H](O)[C@@H](COP(=O)(O)OP(=O)(O)OP(=O)(O)O)O2)c(=O)[nH]1
Result: 7.55

Ask: Indicate its recorded pKi; the compound in question is Nc1nc2c(c(Br)c(Br)n2[C@H]2C[C@H](O)[C@@H](COP(=O)(O)O)O2)c(=O)[nH]1
Result: 7.55

Ask: Indicate its recorded pKi; the compound in question is Nc1nc2c(c(Br)c(Br)n2[C@H]2C[C@H](O)[C@@H](COP(=O)(O)OP(=O)(O)OP(=O)(O)O)O2)c(=O)[nH]1
Result: 7.62

Ask: Indicate its recorded pKi; the compound in question is Nc1nc2c(c(I)c(I)n2[C@H]2C[C@H](O)[C@@H](COP(=O)(O)OP(=O)(O)OP(=O)(O)O)O2)c(=O)[nH]1
Result: 7.52

Ask: Indicate its recorded pKi; the compound in question is Nc1nc2c(c(Cl)c(Cl)n2[C@H]2C[C@H](O)[C@@H](COP(=O)(O)O)O2)c(=O)[nH]1
Result: 7.43

----------
# Target of assay: MTH1 (Homo sapiens, UniProt P36639)
# Experiment: Steady-state kinetics of MTH1 hydrolysis of 8-oxo-dGTP (Lineweaver-Burk plot)
# Assay type: biochemical
# Protocol conditions: 8-oxo-dGTP hydrolysis in the presence of inhibitor; 10–250 μM 8-oxo-dGTP, 2 nM MTH1, 37 °C
Assay readout: kcat (s⁻¹)
Respond with the bare value in s⁻¹.

Ask: Indicate its recorded kcat; the compound in question is Nc1nc2c(c(I)c(I)n2[C@H]2C[C@H](O)[C@@H](COP(=O)(O)OP(=O)(O)OP(=O)(O)O)O2)c(=O)[nH]1
Result: 11.9

Ask: Indicate its recorded kcat; the compound in question is Nc1nc2c(c(Cl)c(Cl)n2[C@H]2C[C@H](O)[C@@H](COP(=O)(O)OP(=O)(O)OP(=O)(O)O)O2)c(=O)[nH]1
Result: 9.3

Ask: Indicate its recorded kcat; the compound in question is Nc1nc2c(c(Cl)c(Cl)n2[C@H]2C[C@H](O)[C@@H](COP(=O)(O)O)O2)c(=O)[nH]1
Result: 9.7
